Consider the following compounds; for each one, report its GGT Increase - Index Value.
Tested on: Hepatotoxicity
Assay: FDA HLAED, gamma-glutamyl transferase (GGT) increase
Conditions: human

## Task Let me know recorded GGT Increase - Index Value for O=C(NCC1CCCCN1)c1cc(OCC(F)(F)F)ccc1OCC(F)(F)F (centres undefined) [FLECAINIDE] , thanks.
## Result 0

## Task Fill in reported GGT Increase - Index Value for this entry: CC(C)NCC(O)c1ccc(NS(C)(=O)=O)cc1 (centres undefined) [SOTALOL]
## Result 1

## Task Specify reported GGT Increase - Index Value for the compound shown: CC(C)(C(=O)O)c1ccc(C(O)CCCN2CCC(C(O)(c3ccccc3)c3ccccc3)CC2)cc1 (centres undefined) [FEXOFENADINE]
## Result 0

## Task Quick one: give measured GGT Increase - Index Value for CC(NC(C)(C)C)C(=O)c1cccc(Cl)c1 (centres undefined) [BUPROPION]
## Result 0

## Task Hello, please tell me recorded GGT Increase - Index Value for this one: NNCCc1ccccc1 [PHENELZINE]
## Result 4.9

## Task Read off the recorded GGT Increase - Index Value for CCCCCCC(=O)O[C@H]1CC[C@H]2[C@@H]3CCc4cc(O)ccc4[C@H]3CC[C@]12C [ESTRADIOL ENANTHATE]
## Result 0.3

## Task Fill in reported GGT Increase - Index Value for this entry: C[C@@H](CN1CC(=O)NC(=O)C1)N1CC(=O)NC(=O)C1 [DEXRAZOXANE]
## Result 0

## Task Write down GGT Increase - Index Value measured for item C[C@H]1COc2c(N3CCN(C)CC3)c(F)cc3c(=O)c(C(=O)O)cn1c23.C[C@H]1COc2c(N3CCN(C)CC3)c(F)cc3c(=O)c(C(=O)O)cn1c23.O [LEVOFLOXACIN]
## Result 0

====

Tested on: Hepatotoxicity
Experiment: FDA HLAED, gamma-glutamyl transferase (GGT) increase
Conditions: human
ASSAY ENDPOINT: GGT Increase - Activity Score

Here are 4 compounds together with their reported answers.
>  <COMPOUND>
CCCCNc1cc(C(=O)O)cc(S(N)(=O)=O)c1Oc1ccccc1 [BUMETANIDE]

>  <TESTED ON>
Hepatotoxicity

>  <MEAS VALUE>
Inactive

$$$$
>  <COMPOUND>
O=[N+]([O-])O[C@@H]1CO[C@H]2[C@@H]1OC[C@@H]2O [ISOSORBIDE MONONITRATE]

>  <TESTED ON>
Hepatotoxicity

>  <MEAS VALUE>
Inactive

$$$$
>  <COMPOUND>
C[C@@H]1CN([C@H]2CC[C@](C#N)(c3ccc(F)cc3)CC2)CC[C@]1(C(=O)O)c1ccccc1 [LEVOCABASTINE]

>  <TESTED ON>
Hepatotoxicity

>  <MEAS VALUE>
Inactive

$$$$
>  <COMPOUND>
CC(NCCc1ccc(O)cc1)C(O)c1ccc(O)cc1 (stereo not drawn) [RITODRINE]

>  <TESTED ON>
Hepatotoxicity

>  <MEAS VALUE>
Inactive

$$$$

## Task Give GGT Increase - Activity Score for CCN[C@H]1C[C@H](C)S(=O)(=O)c2sc(S(N)(=O)=O)cc21 [DORZOLAMIDE]
## Result Inactive

## Task Supply measured GGT Increase - Activity Score of CN(C)CCC=C1c2ccccc2COc2ccccc21 [DOXEPIN] in your reply.
## Result Active

## Task Respond only with GGT Increase - Activity Score recorded for CC(C)(C)NC(=O)[C@@H]1CN(Cc2cccnc2)CCN1C[C@@H](O)C[C@@H](Cc1ccccc1)C(=O)N[C@H]1c2ccccc2C[C@H]1O.O
## Result Active

====

Test system: Hepatotoxicity
Assay: FDA HLAED, alkaline phosphatase increase
Conditions: human
Each entry falls into one class according to its Alkaline Phosphatase Increase - Index Value; the ranges are bottom end: < 0.3; midrange: ≥ 0.3 and < 4; top end: ≥ 4

## Task Lab note: which band did CC(=O)N(CC(O)CO)c1c(I)c(C(=O)NCC(O)CO)c(I)c(C(=O)NCC(O)CO)c1I (stereo not given) [IOHEXOL] land in?
## Result top end

## Task Lab note: sort CC1(C)S[C@@H]2[C@H](NC(=O)C3(N)CCCCC3)C(=O)N2[C@H]1C(=O)O [CYCLACILLIN] into the matching Alkaline Phosphatase Increase - Index Value band.
## Result bottom end

## Task Please indicate the class for Cc1cc2c(s1)Nc1ccccc1N=C2N1CCN(C)CC1 [OLANZAPINE] based on its Alkaline Phosphatase Increase - Index Value.
## Result midrange

## Task Which class is correct for the following compound? COC(=O)C1=C(C)NC(C)=C(C(=O)OC(C)C)C1c1cccc2nonc12 (stereo not given) [ISRADIPINE]
## Result midrange

## Task Category of Cn1c(=O)c2[nH]cnc2n(C)c1=O.O [THEOPHYLLINE] :
## Result bottom end

## Task State the band of O=P1(NCCCl)OCCCN1CCCl (stereo not given) [IFOSFAMIDE]
## Result top end

## Task Dear colleague, I would appreciate it if you could identify the bin for Cc1nnc2n1-c1ccc(Cl)cc1C(c1ccccc1)=NC2 [ALPRAZOLAM] and reply at your convenience.
## Result midrange

## Task // bin(item) where item = NC(=O)OCC(COC(N)=O)c1ccccc1 [FELBAMATE]
## Result top end

## Task Field: class (Alkaline Phosphatase Increase - Index Value) — entry: CCOC(=O)N1CCC(=C2c3ccc(Cl)cc3CCc3cccnc32)CC1 [LORATADINE]
## Result midrange

## Task Which category fits this record: COc1ccc2[nH]c([S+]([O-])Cc3ncc(C)c(OC)c3C)nc2c1 (stereo not given) [OMEPRAZOLE]
## Result midrange

## Task Exercise: read the entry Cc1ccccc1N1CCN(CCc2nnc3n2CCCC3)CC1 [DAPIPRAZOLE] and state which class it falls under.
## Result bottom end

## Task Categorize the following entry: COC(=O)C1=C(C)NC(C)=C(C(=O)OCC(C)C)C1c1ccccc1[N+](=O)[O-] (stereo not given) [NISOLDIPINE]
## Result bottom end

## Task Hey, which category is Cc1ccnc2c1NC(=O)c1cccnc1N2C1CC1 [NEVIRAPINE] in, do you know?
## Result top end

## Task Could you tell me which band CC(C(=O)O)c1ccc(C(=O)c2cccs2)cc1 (stereo not given) [SUPROFEN] belongs to?
## Result top end

## Task # bin label for CCC(C)n1ncn(-c2ccc(N3CCN(c4ccc(OCC5COC(Cn6cncn6)(c6ccc(Cl)cc6Cl)O5)cc4)CC3)cc2)c1=O (stereo not given) [ITRACONAZOLE]
## Result top end

## Task GET /class?item= CCCCC(=O)O[C@H]1CC[C@H]2[C@@H]3CCc4cc(O)ccc4[C@H]3CC[C@]12C [ESTRADIOL VALERATE]
## Result midrange

## Task The entry to classify is CCn1nc(C(=O)O)c(=O)c2cc3c(cc21)OCO3 [CINOXACIN] ; which class holds it?
## Result bottom end

## Task Band for CCCCCCCN(CC)CCCC(O)c1ccc(NS(C)(=O)=O)cc1 (stereo not given) [IBUTILIDE] ?
## Result bottom end

====

Tested on: Hepatotoxicity
Assay: FDA HLAED, serum glutamic pyruvic transaminase (SGPT) increase
Conditions: human
ASSAY ENDPOINT: SGPT Increase - Number of Reports

These recorded examples may help you get a feel for the data.
>  <COMPOUND>
CC=CC1=C(C(=O)O)N2C(=O)[C@@H](NC(=O)[C@H](N)c3ccc(O)cc3)[C@H]2SC1 [CEFPROZIL]

>  <TESTED ON>
Hepatotoxicity

>  <MEAS VALUE>
>= 4

$$$$
>  <COMPOUND>
Cc1cccc(C)c1NC(=O)C(C)N (stereo not drawn) [TOCAINIDE]

>  <TESTED ON>
Hepatotoxicity

>  <MEAS VALUE>
>= 4

$$$$
>  <COMPOUND>
CN[C@H]1CC[C@@H](c2ccc(Cl)c(Cl)c2)c2ccccc21 [SERTRALINE]

>  <TESTED ON>
Hepatotoxicity

>  <MEAS VALUE>
>= 4

$$$$
>  <COMPOUND>
CNC(=C[N+](=O)[O-])NCCSCc1csc(CN(C)C)n1 [NIZATIDINE]

>  <TESTED ON>
Hepatotoxicity

>  <MEAS VALUE>
>= 4

$$$$

## Task Provide only the value of recorded SGPT Increase - Number of Reports for CN(C)C(=N)N=C(N)N [METFORMIN]
## Result < 4

## Task Return reported SGPT Increase - Number of Reports. Input compound: COc1ccccc1OCCNCC(O)COc1cccc2[nH]c3ccccc3c12 (stereo not drawn) [CARVEDILOL]
## Result < 4

## Task Let me know recorded SGPT Increase - Number of Reports for CC1(C)NC(=O)N(c2ccc([N+](=O)[O-])c(C(F)(F)F)c2)C1=O [NILUTAMIDE] , thanks.
## Result < 4

## Task Give the reported SGPT Increase - Number of Reports for this compound. O=C(O)c1cc(/N=N/c2ccc(S(=O)(=O)Nc3ccccn3)cc2)ccc1O [SULFASALAZINE]
## Result >= 4

## Task Provide only the value of recorded SGPT Increase - Number of Reports for Clc1ccc2nsnc2c1NC1=NCCN1 [TIZANIDINE]
## Result < 4

## Task Answer with the recorded SGPT Increase - Number of Reports for the compound listed here: Cc1ccccc1N1CCN(CCc2nnc3n2CCCC3)CC1 [DAPIPRAZOLE]
## Result < 4

## Task Give the value of SGPT Increase - Number of Reports reported for the following: N=C(N)NC(=O)Cc1c(Cl)cccc1Cl [GUANFACINE]
## Result < 4

## Task Using known records, supply SGPT Increase - Number of Reports for Clc1ccc(CCC(Cn2ccnc2)Sc2c(Cl)cccc2Cl)cc1 (stereo not drawn) [BUTOCONAZOLE]
## Result < 4
